system: A. fumigatus CEA10 reference strain; assay: Fluconazole potentiator screen: MIC by CLSI microbroth dilution with and without fluconazole; format: cell-based, Aspergillus fumigatus; conditions: with 32 μg/ml fluconazole; normoxia; GMM, 18 h, 37 °C
Form field: MIC (ug/mL) (+) Fluc (one value per entry).
Supply the numeric figure in µg/mL, leaving out any unit text.

Example compounds with recorded MIC (ug/mL) (+) Fluc:
O=S(=O)(C1CC1)N1CCC2(CC1)CC(CCOc1ccncc1)CCO2 (stereo not shown); 38.10
O=S(=O)(c1ccc(F)cc1)N1CCC(Cc2ccc(CN3CCOCC3)cc2)C1 (stereo not shown); 0.40
O=S(=O)(C1CCC1)N1CCC2(CC1)CC(CCOc1ccncc1)CCO2 (stereo not shown); 49.70

Record lookup: for A. fumigatus CEA10 reference strain, what MIC (ug/mL) (+) Fluc belongs to "O=C(c1ccsc1)N1CCC(Cc2ccc(OCc3ccncc3)cc2)CC1" ?
19.60

Record lookup: for A. fumigatus CEA10 reference strain, what MIC (ug/mL) (+) Fluc belongs to N#Cc1cccc(S(=O)(=O)N2CCC3(CC2)CC(CCOc2ccncc2)CCO3)c1 (stereo not shown) ?
22.00

* * *

system: A. fumigatus CEA10 reference strain; assay: Fluconazole potentiator screen: MIC by CLSI microbroth dilution with and without fluconazole; type: cell-based, Aspergillus fumigatus; conditions: with 32 μg/ml fluconazole; normoxia; GMM, 18 h, 37 °C
Each record is given TRUE if its reported MIC (ug/mL) (+) Fluc is strictly below 10 µg/mL. Records at or above 10 µg/mL are given FALSE.

Example entries and their recorded answers appear below.
O=C(N1CCC(Cc2ccc(COc3ccncc3)cc2)CC1)C12CC(C1)C2; FALSE
Cc1cccc(S(=O)(=O)N2CCC3(CC2)CC(CCOc2ccncc2)CCO3)c1 (stereo not drawn); TRUE
O=S(=O)(c1cccc(F)c1)N1CCC(Cc2ccc(CN3CC4(COC4)C3)cc2)CC1; FALSE
Cn1ccc(C(=O)N2CCC(Cc3ccc(COc4ccncc4)cc3)CC2)c1; FALSE
N=S(=O)(c1ccc(F)cc1)N1CCC(Cc2ccc(CN3CCOCC3)cc2)CC1 (stereo not drawn); FALSE

Dear colleague, could you confirm whether MIC (ug/mL) (+) Fluc of "O=C(c1ccc(O)cc1)N1CCC(Cc2ccc(COc3ccncc3)cc2)CC1" falls below 10 µg/mL? Thanks.
FALSE

Dear colleague, could you confirm whether MIC (ug/mL) (+) Fluc of "O=S(=O)(c1ccc(Cl)cc1)N1CCC(Cc2ccc(CN3CCOCC3)cc2)CC1" falls below 10 µg/mL? Thanks.
TRUE

Dear colleague, could you confirm whether MIC (ug/mL) (+) Fluc of "O=C(c1cccc(F)c1O)N1CCC(Cc2ccc(COc3ccncc3)cc2)CC1" falls below 10 µg/mL? Thanks.
FALSE

Dear colleague, could you confirm whether MIC (ug/mL) (+) Fluc of "O=C(c1cccc(F)c1)N1CCC(Cc2ccc(CN3CCOCC3)cc2)CC1" falls below 10 µg/mL? Thanks.
TRUE

* * *

test system: A. fumigatus CEA10 reference strain; assay: Fluconazole potentiator screen: MIC by CLSI microbroth dilution with and without fluconazole; assay type: cell-based, Aspergillus fumigatus; conditions: with 32 μg/ml fluconazole; normoxia; GMM, 18 h, 37 °C
Form field: MIC (ug/mL) (+) Fluc (one value per entry).
Supply the numeric figure in µg/mL, leaving out any unit text.

O=C(c1cccnc1)N1CCC(Cc2ccc(COc3ccncc3)cc2)CC1 [MBX-7730]; 7.70
O=S(=O)(c1ccc(F)cc1)N1CCC2(CC1)CC(CCOc1ccncc1)CCO2 (stereo not drawn) [MBX-7871]; 1.09

// returns reported MIC (ug/mL) (+) Fluc for input O=S(=O)(c1ccccc1F)N1CCC(Cc2ccc(CN3CCOCC3)cc2)CC1 [MBX-8252]
1.07

// returns reported MIC (ug/mL) (+) Fluc for input O=C(c1ccccc1F)N1CCC(Cc2ccc(COc3ccncc3)cc2)CC1 [MBX-7769]
8.09

// returns reported MIC (ug/mL) (+) Fluc for input O=C(c1ccc(Cl)s1)N1CCC(Cc2ccc(COc3ccncc3)cc2)CC1 [MBX-8095]
3.80
